// reported inhibition at 0.1 µM per item
- STUDY SYSTEM: recombinant human Cox-2 (r-hu Cox-2) (Homo sapiens, UniProt P35354)
- Construct: made in house; host or cells: baculovirus/Sf9 insect cells (microsomes)
- Sequence (P35354 18-604): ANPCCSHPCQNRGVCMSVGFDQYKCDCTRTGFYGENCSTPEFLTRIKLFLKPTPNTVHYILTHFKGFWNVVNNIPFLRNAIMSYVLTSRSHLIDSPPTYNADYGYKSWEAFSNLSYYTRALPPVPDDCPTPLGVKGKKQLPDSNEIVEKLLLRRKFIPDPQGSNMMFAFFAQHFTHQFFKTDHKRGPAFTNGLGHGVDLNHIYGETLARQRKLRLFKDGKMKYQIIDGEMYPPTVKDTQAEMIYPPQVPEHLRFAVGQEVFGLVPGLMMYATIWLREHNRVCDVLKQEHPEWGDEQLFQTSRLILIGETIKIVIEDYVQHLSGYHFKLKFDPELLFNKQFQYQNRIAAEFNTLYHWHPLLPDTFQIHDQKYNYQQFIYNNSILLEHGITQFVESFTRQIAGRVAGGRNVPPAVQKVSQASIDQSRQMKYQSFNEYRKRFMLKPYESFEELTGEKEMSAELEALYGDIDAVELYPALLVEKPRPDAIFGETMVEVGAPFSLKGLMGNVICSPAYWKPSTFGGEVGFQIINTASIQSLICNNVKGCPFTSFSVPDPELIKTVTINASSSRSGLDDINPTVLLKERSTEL
- ASSAY NOTES: Recombinant human PGHS-2 enzyme assay (RHUCX2)
- Type: biochemical
- EXPERIMENTAL PARAMETERS: 0.1 μM; read-out: RHUCX2 % Inh. at Dose
Supply the numeric figure in %, leaving out any unit text.

CS(=O)(=O)c1ccc(-c2cnn(C=C(F)C(F)(F)C(F)(F)F)c(=O)c2-c2ccc(F)cc2)cc1 [Example 40] ... 89

Kindly note the recorded inhibition at 0.1 µM for CC(C)CCOc1c(-c2ccc(S(N)(=O)=O)cc2)cnn(-c2cccc(Cl)c2)c1=O [Example 394] , which is 64

Per the records, this compound ( CC1(COc2c(-c3ccc(S(C)(=O)=O)cc3)cnn(CC(F)(F)F)c2=O)CC1 [Example 279] ) has inhibition at 0.1 µM equal to 31

Per the records, this compound ( CC(C)=CCOc1c(-c2ccc(S(C)(=O)=O)cc2)cnn(-c2cccc(Cl)c2)c1=O [Example 423] ) has inhibition at 0.1 µM equal to 68

----------
PROPERTY MEASURED: melting point

# annotated cases, reported melting point shown
Cc1cc(-c2c(-c3ccc(S(C)(=O)=O)cc3)cnn(-c3ccc(F)c(F)c3)c2=O)ccc1F ... 166 to 168 °C
CS(=O)(=O)c1ccc(-c2cnn(-c3cccc(Cl)c3)c(=O)c2SCc2ccccc2)cc1 ... 142 to 145 °C
COc1c(-c2ccc(S(C)(=O)=O)cc2)cnn(-c2cccc(Cl)c2)c1=O ... 112 to 114 °C

According to the records, this compound CS(=O)(=O)c1ccc(-c2cnn(CC(F)(F)F)c(=O)c2Oc2cccnc2)cc1 displays melting point of 191 to 193 °C

----------
Recorded inhibition at 100 µM values for a group of compounds are listed next.
- STUDY SYSTEM: Human Whole Platelet Cyclooxygenase-1 (Homo sapiens)
- Construct: from tissue; host or cells: human blood: isolated platelets (A4) or heparinised whole blood (A9)
- Sequence (P23219 24-599): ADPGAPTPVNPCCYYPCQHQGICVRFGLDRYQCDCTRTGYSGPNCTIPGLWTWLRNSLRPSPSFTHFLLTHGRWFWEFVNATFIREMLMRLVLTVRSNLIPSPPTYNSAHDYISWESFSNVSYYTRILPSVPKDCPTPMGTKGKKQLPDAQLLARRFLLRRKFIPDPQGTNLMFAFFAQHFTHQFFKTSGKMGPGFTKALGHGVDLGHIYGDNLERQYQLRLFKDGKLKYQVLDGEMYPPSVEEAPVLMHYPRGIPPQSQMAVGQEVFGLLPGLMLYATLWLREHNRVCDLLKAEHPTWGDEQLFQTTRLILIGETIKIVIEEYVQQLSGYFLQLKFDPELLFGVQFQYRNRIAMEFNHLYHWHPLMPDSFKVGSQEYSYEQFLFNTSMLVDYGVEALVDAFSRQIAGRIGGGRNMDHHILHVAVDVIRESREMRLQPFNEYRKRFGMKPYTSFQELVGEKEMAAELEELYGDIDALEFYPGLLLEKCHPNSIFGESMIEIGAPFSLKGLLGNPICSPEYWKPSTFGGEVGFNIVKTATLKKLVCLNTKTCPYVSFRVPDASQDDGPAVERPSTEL
- ASSAY NOTES: Human Whole Platelet Cyclooxygenase-1 assay (HWPX)
- Format: cell-based
- EXPERIMENTAL PARAMETERS: 100 μM; read-out: HWPX % Inhib. at Dose
Respond with the figure and its unit, in that order.

Answered cases to consult:
CC(C)CCOc1c(-c2ccc(S(N)(=O)=O)cc2)cnn(-c2ccc(F)c(F)c2)c1=O [Example 445] ... 100%
CCC(CC)COc1c(-c2ccc(S(C)(=O)=O)cc2)cnn(-c2ccc(F)cc2)c1=O [Example 430] ... 89%
CC(C)(C)COc1c(-c2ccc(S(C)(=O)=O)cc2)cnn(-c2ccc(F)c(F)c2)c1=O [Example 349] ... 34%

Looking up CC(C)(C)COc1c(-c2ccc(S(N)(=O)=O)c(F)c2)cnn(CC(F)(F)F)c1=O [Example 381] , I found its inhibition at 100 µM recorded as 91%

response.value for CC(C)(O)CCOc1c(-c2ccc(S(C)(=O)=O)cc2)cnn(-c2cccc(Cl)c2)c1=O [Example 475] (field: inhibition at 100 µM) = 50%

Given item Cc1cc(-n2ncc(-c3ccc(S(C)(=O)=O)cc3)c(-c3ccc(F)cc3)c2=O)ccc1F [Example 189] , the value recorded as its inhibition at 100 µM is 31%
